These data points were gathered from patent US20260098008A1.

- ASSAYED TARGET: TREK-1^CG* (K2P2.1 (TREK-1) S131C) (Mus musculus, UniProt P97438, S146C)
- Sequence (P97438 1-411 isoform P97438-2 S131C): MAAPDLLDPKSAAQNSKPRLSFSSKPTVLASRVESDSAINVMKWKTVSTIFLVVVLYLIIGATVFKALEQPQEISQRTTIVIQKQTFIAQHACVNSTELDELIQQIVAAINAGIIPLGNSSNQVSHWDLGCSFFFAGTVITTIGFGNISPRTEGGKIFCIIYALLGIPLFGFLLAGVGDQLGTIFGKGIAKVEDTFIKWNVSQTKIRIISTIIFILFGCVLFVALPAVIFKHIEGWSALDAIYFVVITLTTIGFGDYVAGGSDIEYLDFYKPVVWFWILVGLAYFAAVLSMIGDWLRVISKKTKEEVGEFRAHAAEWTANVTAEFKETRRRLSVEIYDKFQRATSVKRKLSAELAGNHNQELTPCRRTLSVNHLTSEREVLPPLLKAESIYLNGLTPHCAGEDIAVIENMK
- ASSAY TEXT: TEVC in Xenopus oocytes
- MEASUREMENT CONDITIONS: TEVC at 0 mV, normalized to initial currents

MOLECULE | READOUT UNITS | EC50
CS(=O)(=O)Nc1ccc(C(=O)NCc2ccc(Cl)cc2Cl)cc1 [ML335, reference compound] | µM | 18
